# Tested on: MKL-1
# ASSAY_REMARKS: qHTS assay to identify novel small-molecules to repurpose for Merkel cell carcinoma treatment (AID 1296009); note: nearly all actives have a fitted effect of over 60% in size
# CONDITION_SUMMARY: MCC and control cell lines, CellTiter-Glo viability, 72 h; series mostly up to 46 µM
Records with an inconclusive call do not appear. Active and inactive are the calls of the source. Calls come from the whole dose curve; as a rule, active = well fitted inhibition curve with a large enough effect; inconclusive = small, poorly fitted or top-dose-only effect; inactive = flat fitted curve, though single readings scatter.
The reply should be one of these categories: label 1 for active, label 0 for inactive

Example entries begin here.
| MOLECULE | CLASS_LABEL |
| --- | --- |
| CC(C)c1c(C(=O)Nc2ccccc2)c(-c2ccccc2)c(-c2ccc(F)cc2)n1CC[C@H](O)C[C@@H](O)CC(=O)O | label 1 |
| CC(C)[C@H](O)C(=O)N[C@@H](C)C(=O)N[C@@H]1C(=O)N(C)CCc2ccccc21 | label 0 |
| CN(C)c1nc(Cc2ccc(NC(=O)c3ccc(C(F)(F)F)cc3)cc2)nc(N(C)C)c1CC(=O)O | label 0 |
| CC1C(=O)OC2C(O)C34C5CC(C(C)(C)C)C36C(OC(=O)C6O)OC4(C(=O)O5)C12O (stereo not drawn) | label 0 |
| O=C(O)CCNc1cc(N2CCc3ccccc3CC2)nc(-c2ccccn2)n1 | label 0 |

Query block: Status in this test for CC(C)c1onc(-c2c(Cl)cccc2Cl)c1COc1ccc(C=Cc2cccc(C(=O)O)c2)c(Cl)c1 ?
Result block: label 0

Query block: Query: recorded result category for CCCCN(CCCC)CC(O)c1cc(Cl)cc2c1-c1ccc(Cl)cc1C2=Cc1ccc(Cl)cc1 (stereo not drawn) in this test
Result block: label 0

Query block: Tell me the recorded outcome of this test for COc1cc(Cl)cn2c(-c3cccc(NC4CNC4)n3)cnc12 .
Result block: label 0

From: PubChem BioAssay (NCATS)
